Test system: OVCAR-4 ovarian
Test: NCI-60 one-dose screen, 48 h
Details: 10 µM
Compounds without any hit were thinned out: in the full panel of roughly 83,000, 20% have a hit. Calls of active or inactive are those of the source. Rule for the calls: active = growth percent below 10; inactive = the rest.
Labels: y = active, n = inactive

{"Compound": "CN(C)c1ccc(/C=C/c2nc3ccccc3c(=O)n2CC(=O)Nc2ccc(Cl)cc2)cc1", "Assigned label": "y"}
{"Compound": "COc1ccccc1NCc1ccc(CO)n1-c1ccc(C)cc1", "Assigned label": "n"}
{"Compound": "O=C(CSc1nnc(-c2c[nH]c3ccccc23)n1-c1ccccc1)c1ccc(Br)cc1", "Assigned label": "n"}
{"Compound": "NS(=O)(=O)c1ccc(NC(=O)CSc2ccc(-c3ccc(Cl)cc3)nn2)c(Br)c1", "Assigned label": "n"}
{"Compound": "O=c1oc2ccc(-c3ccc(F)cc3F)cc2c(=O)n1-c1ccc(Cl)c(C(F)(F)F)c1", "Assigned label": "n"}
{"Compound": "NS(=O)(=O)c1ccc(NC(=O)CSc2ccc(-c3ccccc3)nn2)c(Br)c1", "Assigned label": "n"}
{"Compound": "CC1=C2C(=C[C@@](C)(COCOCCCl)[C@@H]2O)C(=O)[C@](C)(O)C12CC2", "Assigned label": "y"}
{"Compound": "CCN1CCN(c2ccc(NC(=O)Nc3ccc(-c4cc(C(=O)NC(C)C)c5ncccc5n4)cc3)cc2C(F)(F)F)CC1", "Assigned label": "y"}
{"Compound": "N#Cc1c(NC(=O)c2ccc(C(F)(F)F)c(Cl)c2)sc2c1CCC(=O)C2", "Assigned label": "y"}
{"Compound": "CCCn1c(=O)c2[nH]c(-c3ccc(OCc4nc5ccccc5[nH]4)cc3)nc2n(CCC)c1=O", "Assigned label": "y"}
{"Compound": "CC(=C(c1ccc(OCCN2CCCCCC2)cc1)c1ccc(OCCN2CCCCCC2)cc1)c1ccc(Cl)cc1", "Assigned label": "y"}
{"Compound": "Brc1ccc(/C=N/Nc2ncnc3sc4c(c23)CCN(Cc2ccccc2)C4)cc1", "Assigned label": "n"}
{"Compound": "Cc1cccc(NC(=O)CSc2nc3ccc(F)cc3c(=O)n2-c2ccc(Cl)cc2)c1C", "Assigned label": "n"}
{"Compound": "O=C(/C=C/Nc1ccc(F)cc1F)c1ccc2c(c1)Nc1ccccc1S2", "Assigned label": "n"}
{"Compound": "COc1ccc(CCN2C(=O)/C(=C/c3csc(C#N)n3)SC2=S)cc1OC", "Assigned label": "n"}
{"Compound": "COc1ccc(-c2nc(S(=O)(=O)c3ccccc3)c(S(C)(=O)=O)o2)cc1", "Assigned label": "y"}
{"Compound": "COc1cc2oc(-c3cccc(C(=O)Nc4ccc(Cl)cc4)c3)cc(=O)c2c(OCCNC(=O)CNC(=O)OC(C)(C)C)c1OC", "Assigned label": "n"}
{"Compound": "COc1ccc(-c2nc(Nc3ccccc3S(N)(=O)=O)c3ccccc3n2)cc1", "Assigned label": "n"}
{"Compound": "Cc1ccc(F)cc1N/C=c1\\s/c(=C(\\C#N)C(=O)Nc2ccccc2)n(-c2ccccc2)c1=O", "Assigned label": "y"}
{"Compound": "Cc1ccc(/C=C/C(=O)c2ccc(NC(=O)CSc3nnc(-c4c[nH]c5ccccc45)n3-c3ccccc3)cc2)cc1", "Assigned label": "n"}
{"Compound": "CCOc1ccc(/C=N/NC(=O)Cn2nc(Cc3ccccc3)c3onc(C)c3c2=O)cc1", "Assigned label": "n"}
{"Compound": "N#Cc1c(-c2ccc(Cl)cc2)cc(-c2ccccc2)nc1OCc1ccccc1", "Assigned label": "n"}
{"Compound": "Cn1cc(-c2cc(N)n3nc(-c4c[nH]c5ccc(Br)cc45)cc3n2)c2cccnc21", "Assigned label": "y"}
{"Compound": "Cc1cc2c(c(O)c1Br)-c1ncoc1C(=O)[C@]1(C)CC[C@H](C(C)C)[C@H]21", "Assigned label": "n"}
{"Compound": "COc1cc2c(cc1OC)CN(CCCCOc1cc(O)c3c(=O)cc(-c4ccccc4)oc3c1)CC2", "Assigned label": "n"}
{"Compound": "COc1ccc(C(=O)Nc2sc3c(c2C#N)CCC(=O)C3)cc1C(F)(F)F", "Assigned label": "n"}
{"Compound": "O=C(Nc1ccc(Cl)c([N+](=O)[O-])c1)Nc1ccc(Cl)c([N+](=O)[O-])c1", "Assigned label": "n"}
{"Compound": "CCOC(=O)C1NN(c2ccc(S(N)(=O)=O)cc2)c2nc3nc(-c4cccs4)cc(-c4cccs4)c3c(=O)n21 (stereo unspecified)", "Assigned label": "n"}
{"Compound": "COc1ccc(-c2cc(C(=O)N=Nc3c(O)[nH]c4ccc(F)cc34)c3ccccc3n2)cc1", "Assigned label": "n"}
{"Compound": "CC(=O)c1cc(C(=O)N2c3ccccc3Sc3ccccc32)n2ccc(C)cc12", "Assigned label": "n"}
{"Compound": "COc1ccc(NC(=O)Cn2c(/C=C/c3ccc(N(C)C)cc3)nc3ccccc3c2=O)cc1", "Assigned label": "n"}
{"Compound": "CO[C@H]1CSS[C@@H]1Cn1nc(-c2ccc(Oc3ccccc3)cc2)c2c(N)ncnc21", "Assigned label": "n"}
{"Compound": "O=C(CNc1nc(-c2ccccc2)cs1)Nc1ccc(Cl)cc1", "Assigned label": "y"}
{"Compound": "CC1(C)CC[C@]2(C(=O)N3CCOCC3)CC[C@]3(C)C(=CC[C@@H]4[C@@]5(C)CC[C@H](NCO)C(C)(C)[C@@H]5CC[C@]43C)[C@H]2C1", "Assigned label": "y"}
{"Compound": "C=C(C)[C@@H]1CC[C@]2(C)[C@H](CC=C3[C@@H]4CC(C)(C)CC[C@]4(C(=O)N4CCOCC4)CC[C@]32C)[C@@]1(C)CCCN", "Assigned label": "y"}
{"Compound": "CC(C)C1=C[C@@]23CC[C@@H]4[C@](C)(CCC[C@]4(C)C(=O)NCc4ccccc4)[C@H]2C[C@@H]1[C@H]1C(=O)OC(=O)[C@H]13", "Assigned label": "n"}
